EXPERIMENT SUMMARY: Aqueous solubility (pH 7.4)
Format: physicochemical
RUN CONDITIONS: aqueous medium at physiological pH, pH 7.4, aqueous buffer; read-out: aqueous solubility at physiological pH
METRIC: solubility (µg/mL)
# value in µg/mL; strip the unit string

Q) State its solubility: C#C[C@]1(CO)O[C@@H](n2cnc3c(N)nc(F)nc32)C[C@@H]1O [Compound 1, 4′-Ethynyl-2-fluoro-2′-deoxyadenosine, reference compound]
A) 877

---

EXPERIMENT SUMMARY: Aqueous solubility (pH 7.4)
Type: physicochemical
RUN CONDITIONS: aqueous medium at pH 7.4, pH 7.4, aqueous buffer; read-out: Aqueous solubility (pH 7.4)
Recorded measurements of solubility, one per entry

C#C[C@]1(COC(=O)c2ccccc2)O[C@@H](n2cnc3c(N)nc(F)nc32)C[C@@H]1OC(=O)c1ccccc1 < 2 µg/mL

Q) State its solubility: C#C[C@]1(COC(=O)C2CCCC2)O[C@@H](n2cnc3c(N)nc(F)nc32)C[C@@H]1OC(=O)C1CCCC1
A) < 1 µg/mL
